Test system: CP194
Test: qHTS profiling for inhibitors of Plasmodium falciparum proliferation (AID 504749); further: nearly all actives have a fitted effect of over 60% in size; further: potency means the concentration at half of the fitted maximal effect
Details: P. falciparum in erythrocytes, SYBR Green DNA, 72 h; series mostly up to 28.7 µM
Results filed as inconclusive are left out. Calls of active or inactive are those of the source. The call rests on the fitted dose curve; in most records, active means well fitted inhibition curve with a large enough effect; inconclusive means small, poorly fitted or top-dose-only effect; inactive means flat fitted curve, though single readings scatter.
experimental.endpoint: Potency

# count of solved cases: 10
What is its Potency for CP194? Entry: C=CC1CN2CCC1CC2C(OC(=O)OCC)c1ccnc2ccc(OC)cc12 (stereo not given)
6.01 µM (active)

What is its Potency for CP194? Entry: COc1cc2c(cc1OC)[C@@]13CCN4CC5=CCOC6CC(=O)N2C1[C@H]6[C@@H]5C[C@@H]43 (stereo not given in full)
inactive

What is its Potency for CP194? Entry: CC1=C2[C@@H]3OC(=O)[C@@H](C)[C@@H]3CC[C@]2(C)C=CC1=O
inactive

What is its Potency for CP194? Entry: C[C@]12CC[C@H](OS(=O)(=O)O)CC1=CCC1C2CC[C@]2(C)C(=O)CC[C@@H]12 (stereo not given in full)
inactive

What is its Potency for CP194? Entry: CNc1ccc(C(=O)CC(O)CCC(C)C2OC(=O)CC(O)CC(=O)CC(O)CC(O)CC(O)CC(O)CC3(O)CC(O)C(C(=O)OC)C(CC(O[C@@H]4OC(C)C(O)C(N)C4O)/C=C/C=C/C=C/C=C/C=C/C=C/C=C/C2C)O3)cc1 (stereo not given in full)
inactive

What is its Potency for CP194? Entry: NCC[C@H](O)C(=O)N[C@H]1C[C@@H](N)[C@@H](O[C@H]2O[C@@H](CN)[C@@H](O)[C@@H](O)[C@@H]2N)[C@@H](O[C@H]2O[C@@H](CO)[C@@H](O)[C@@H]2O)[C@@H]1O
inactive

What is its Potency for CP194? Entry: CN[C@@H](C)[C@H]1CC[C@@H](N)[C@@H](O[C@@H]2[C@@H](O)[C@@H](O[C@H]3OC[C@@](C)(O)[C@@H](NC)[C@@H]3O)[C@H](N)C[C@@H]2N)O1 (tested in a mixture with another compound)
inactive

What is its Potency for CP194? Entry: C[C@@H]1O[C@H](O[C@@H]2C=C3CC[C@H]4[C@@H](CC[C@]5(C)[C@@H](c6ccc(=O)oc6)CC[C@]45O)[C@@]3(C)CC2)[C@@H](O)[C@H](O)[C@@H]1O
inactive

What is its Potency for CP194? Entry: C[N+]1(C)[C@@H]2CC[C@H]1CC(OC(=O)[C@@H](CO)c1ccccc1)C2 (stereo not given in full)
inactive

What is its Potency for CP194? Entry: CCC(C)C1O[C@]2(C=CC1C)CC1CC(C/C=C(\C)[C@H](OC3CC(OC)C(O[C@H]4CC(OC)[C@@H](O)C(C)O4)C(C)O3)[C@@H](C)/C=C/C=C3\COC4C(O)C(C)=C[C@H](C(=O)O1)[C@@]34O)O2 (stereo not given in full)
12 µM (active)

---
What is its Potency for CP194? Entry: O=[As]O[As]=O (stereo not given)
13.5 µM (active)

What is its Potency for CP194? Entry: C#CCN(C)[C@@H](C)Cc1ccccc1
inactive

What is its Potency for CP194? Entry: O=c1ccc2cc(O[C@H]3O[C@@H](CO)[C@@H](O)[C@@H](O)[C@@H]3O)c(O)cc2o1
inactive

What is its Potency for CP194? Entry: CC(C)(O)C1C2OC(=O)C1[C@]1(O)C[C@H]3O[C@]34C(=O)O[C@H]2[C@]14C (stereo not given in full) (tested in a mixture with another compound)
inactive

What is its Potency for CP194? Entry: CCN[C@]1(c2cccs2)CCCCC1=O
inactive
